Record type: pIC50 measurement. Applies to: Tropomyosin receptor kinase A (TrkA) (Homo sapiens, UniProt P04629)
Units for pIC50: none; it is -log10 of a concentration expressed in mol/L.

As a guide, the following entries are already answered.
SMILES STRUCTURE	VALUE
CC(C)(O)/C=C/C(=O)[C@](C)(O)[C@H]1[C@H](O)C[C@@]2(C)[C@@H]3CC=C4[C@@H](C=C(O)C(=O)C4(C)C)[C@]3(C)C(=O)C[C@]12C	6.02
CC(=O)OC(C)(C)/C=C/C(=O)[C@](C)(O)[C@H]1[C@H](O)C[C@@]2(C)[C@@H]3CC=C4[C@@H](C=C(O)C(=O)C4(C)C)[C@]3(C)C(=O)C[C@]12C	6.26

Continue with the next compound.
Summary line: `CC(=O)OC(C)(C)/C=C/C(=O)[C@](C)(O)[C@H]1[C@H](O)C[C@@]2(C)[C@@H]3CC=C4[C@@H](C[C@H](O)C(=O)C4(C)C)[C@]3(C)C(=O)C[C@]12C` , Tropomyosin receptor kinase A (TrkA) (Homo sapiens, UniProt P04629), reported pIC50 = 6.75
